System: DMS-114
ASSAY_SUMMARY: NCI tumour cell line growth inhibition, 48 h
Activity calls are given as the source filed them. Cut-off read from the data, not from the text of the source: active = GI50 up to about 1.1 µM and inactive = higher.
API: response.call in true for active, false for inactive

// below: answered molecules
* O=C(O)CCSC(=O)Nc1cccc([N+](=O)[O-])c1 | false
* OC(c1ccccc1)(c1ccccc1)c1ccncc1 | false
* CCCCCCCCCCCCCCCCOP(=O)(O)Oc1ccc(/C=C\c2ccc(OP(=O)(O)OCCCCCCCCCCCCCCCC)cc2)cc1 | false
* N#CC(C(=O)CCC(=O)Nc1ccc(Cl)cc1)c1ccccc1Cl (stereo not drawn) | false
* CC(=O)NC(CCCNCc1ccccc1)C(=O)NCc1ccccc1 (stereo not drawn) | false

query: Hello, I am checking results. What call was entered for "CCCCCCCCC(=O)CCCCCCCCC(=O)O" ?
result: false

query: Hello, I am checking results. What call was entered for "CC1=C(C(=O)CC(=O)C(=O)Nc2ccccc2C(F)(F)F)Sc2ccccc2N1" ?
result: false

query: Hello, I am checking results. What call was entered for "CCOC(=O)C(Cc1cn(S(=O)(=O)c2ccccc2)c2ccccc12)(NC(C)=O)C(=O)OCC" ?
result: false

query: Hello, I am checking results. What call was entered for CCOC(=O)Oc1cc2c(c(OC)c1OC)-c1ccc(OC)c(=O)cc1C(NC(C)=O)CC2 (stereo not drawn) ?
result: true

query: Hello, I am checking results. What call was entered for CN(C)CC1CCCC/C1=N/OC(=O)c1ccc(Cl)c(Cl)c1 (stereo not drawn) ?
result: false

query: Hello, I am checking results. What call was entered for "COc1ccc2nc3cc(Cl)ccc3c(Sc3ccccc3[N+](=O)[O-])c2c1" ?
result: false

query: Hello, I am checking results. What call was entered for "O=S(=O)(SCc1ccccc1)C(c1ccccc1)c1ccccc1" ?
result: false

query: Hello, I am checking results. What call was entered for O=C1OC(CC(=O)c2ccc(Cl)cc2Cl)C(Cl)=C1Cl (stereo not drawn) ?
result: false

###

Test system: HOP-62
ASSAY_SUMMARY: NCI tumour cell line growth inhibition, 48 h
Active and inactive are the calls of the source. No stated cut-off is given here; in the data, active = GI50 up to about 1.1 µM and inactive = higher.
API: response.call in active, inactive

- Cc1nnc2sc(Cc3cnc(N)s3)nn12: inactive
- CC(=O)NNc1nc(C)c(C(=O)NNC(=O)C(=O)Nc2nc3ccc([N+](=O)[O-])cc3s2)s1: inactive
- CCN(CC)c1c(C(C)(C)C)c(=O)n2ccsc2c1OC(C)=O: inactive
- COC(=O)C(=O)C(C(=O)C(=O)Nc1ccc([N+](=O)[O-])cc1C#N)c1nc2ccc([N+](=O)[O-])cc2nc1O (stereo not given): inactive
- O=C(CSc1nc2ccc(I)cc2c(=O)n1Cc1ccccc1)NNC(=O)c1ccccc1: inactive

Continue with the next molecule.
query: Hello, I am checking results. What call was entered for "CCN1CCN=c2c3cc(OC)ccc3n3cnc4ccc1c2c43" ?
result: active

###

Test system: Malme-3M
ASSAY_SUMMARY: NCI tumour cell line growth inhibition, 48 h
The source made the active and inactive calls. No stated cut-off is given here; in the data, active = GI50 up to about 1.1 µM and inactive = higher.
Give measured GI50 for each item. Keep answers brief.

* O=C(c1ccccc1)[C@H]1Nc2ccc(Cl)cc2C2c3ccccc3CC21 (stereo not given in full) | > 10 µM (inactive)
* COc1ccc(-c2c(C#N)c(N)nc3c2CCS(=O)(=O)c2ccccc2-3)cc1 | 44.3 µM (inactive)
* COC(=O)/C=C/c1ccc2c(c1)CC1(C2)Cc2cc3c(cc2C1=O)CCC3 (stereo not given) | 42 µM (inactive)
* O=S(O)CCCCSSCc1ccccc1CSSCCCCS(=O)O | 8.91 µM (inactive)
* COc1cccc2ccc3c(c12)C(=O)OC31CCc2c(C)cccc21 (stereo not given) | 19.1 µM (inactive)
* Cc1ccc(NCC(=O)N2CC(=O)Nc3ccccc32)c(C)c1 | > 100 µM (inactive)
* C[C@]12CC[C@H]3[C@@H](CCC4=CC(=O)CC[C@@]43C)[C@]1(O)CC[C@]2(O)C(=O)CO | > 100 µM (inactive)
* O=C1/C(=C/c2ccccc2)N=C(c2ccccc2)N1n1c(-c2ccccc2)nc2ccccc2c1=O | > 100 µM (inactive)
* CC(Cc1ccccc1)N(C)Cc1nc(C2CCC([N+](=O)[O-])O2)no1 (stereo not given) | 11.9 µM (inactive)

Now for another entry.
query: Need GI50 of CCCCCCCCCCCCP(=O)(O)OCC(N)C(=O)O (stereo not given) , thanks.
result: > 100 µM (inactive)
